Recorded measurements of TGI, one per entry
System: CAKI-1 renal
experimental-protocol: NCI tumour cell line growth inhibition, 48 h

These solved cases illustrate the format of a correct answer.
molecule	endpoint-label	result
Cn1cc2ccccc2c1-c1nc(F)nc(OCC(=O)[C@H]2CCC3[C@@H]4CCC5=CC(=O)CC[C@]5(C)C4[C@@H](O)C[C@@]32C)n1 (stereo not given in full)	TGI	14 µM
O=c1c2cc(Cl)ccc2sc2cccc(Cl)c12	TGI	> 100 µM
CC(C)(C)c1cc(O)ccc1O	TGI	> 70.4 µM
Cc1ccc(NC(=O)c2cc(S(=O)(=O)Nc3nc4ncccc4[nH]3)c(SSc3cc(Cl)c(C(=O)Nc4ccc(C)cc4)cc3S(=O)(=O)Nc3nc4ncccc4[nH]3)cc2Cl)cc1	TGI	> 100 µM
CC(=O)O[C@H]1C(=O)[C@@]2(C)C(C(OC(=O)c3ccccc3)C3[C@@H](O)C(OC(=O)[C@@H](O)[C@H](NC(=O)c4ccccc4)c4ccc(C(F)(F)F)cc4)C(C)=C1C3(C)C)[C@]1(OC(C)=O)CO[C@@H]1C[C@@H]2O (stereo not given in full)	TGI	> 25 µM
CCCCCCCCCCCCCCCCCCN(C)CC(COP(=O)([O-])OCC[N+](C)(C)C)OC (stereo not given)	TGI	20.9 µM
COc1ccccc1NC(=O)CC(=O)N/N=C/c1ccc(N(CCC#N)S(=O)(=O)c2ccccc2)cc1	TGI	> 100 µM
COC(C)(C)C/C=C/C(C)=C/C=C/C(C)=C\C=C\C(C)=C\C=C\C=C(C)\C=C\C=C(C)\C=C\C=C(C)\C=C\CC(C)(C)OC	TGI	> 150 µg/mL
CCOC(=O)c1c2c(n3ccccc13)C(=O)c1ncccc1C2=O	TGI	28.5 µM
O=C1C(=Cc2c(O)cc(O)cc2O)C(=O)c2ccccc21	TGI	> 65.5 µM

Form field TGI, entry Cc1cnc(C(=O)NNc2nc3sc4c(c3c(=O)n2C)C(C)CCC4)cn1 (stereo not given) : 2.49 µM

Form field TGI, entry CC(=O)C1CC[C@@H]2[C@H](CC[C@]3(C)[C@@H](O)CC[C@@H]23)[C@H]1C(=O)O (stereo not given in full) : > 100 µM

Form field TGI, entry CCCCCCCCCCNC(=O)CCC(NC(=O)c1ccc(N(C)Cc2cnc3nc(N)nc(N)c3n2)cc1)C(=O)NCCCCCCCCCC (stereo not given) : > 100 µM

Form field TGI, entry CC1=C(C(=O)Nc2ccccc2)C2(CCCCC2)C(C#N)=C(SCC(=O)Nc2ccc(Br)cc2)N1 : 17.6 µM

Form field TGI, entry Cc1nc2c(=O)n(C)ncc2[nH]1 : > 100 µM
